Target: DRB1*0802 (DR8w2)
Assay: binding to purified HLA
OBSERVED_PROPERTY: IC50 (nM)

SYPARYANAMAVGAT [B. lentus .160]; 2030
NGIEWAIANNMDVIN [BPN' Y217L .109]; 2190
GTVAALNNSIGVLGV [BPN' Y217L .70]; 1710
